Target: PARP1 (Homo sapiens)
Sequence (P09874 whole entry): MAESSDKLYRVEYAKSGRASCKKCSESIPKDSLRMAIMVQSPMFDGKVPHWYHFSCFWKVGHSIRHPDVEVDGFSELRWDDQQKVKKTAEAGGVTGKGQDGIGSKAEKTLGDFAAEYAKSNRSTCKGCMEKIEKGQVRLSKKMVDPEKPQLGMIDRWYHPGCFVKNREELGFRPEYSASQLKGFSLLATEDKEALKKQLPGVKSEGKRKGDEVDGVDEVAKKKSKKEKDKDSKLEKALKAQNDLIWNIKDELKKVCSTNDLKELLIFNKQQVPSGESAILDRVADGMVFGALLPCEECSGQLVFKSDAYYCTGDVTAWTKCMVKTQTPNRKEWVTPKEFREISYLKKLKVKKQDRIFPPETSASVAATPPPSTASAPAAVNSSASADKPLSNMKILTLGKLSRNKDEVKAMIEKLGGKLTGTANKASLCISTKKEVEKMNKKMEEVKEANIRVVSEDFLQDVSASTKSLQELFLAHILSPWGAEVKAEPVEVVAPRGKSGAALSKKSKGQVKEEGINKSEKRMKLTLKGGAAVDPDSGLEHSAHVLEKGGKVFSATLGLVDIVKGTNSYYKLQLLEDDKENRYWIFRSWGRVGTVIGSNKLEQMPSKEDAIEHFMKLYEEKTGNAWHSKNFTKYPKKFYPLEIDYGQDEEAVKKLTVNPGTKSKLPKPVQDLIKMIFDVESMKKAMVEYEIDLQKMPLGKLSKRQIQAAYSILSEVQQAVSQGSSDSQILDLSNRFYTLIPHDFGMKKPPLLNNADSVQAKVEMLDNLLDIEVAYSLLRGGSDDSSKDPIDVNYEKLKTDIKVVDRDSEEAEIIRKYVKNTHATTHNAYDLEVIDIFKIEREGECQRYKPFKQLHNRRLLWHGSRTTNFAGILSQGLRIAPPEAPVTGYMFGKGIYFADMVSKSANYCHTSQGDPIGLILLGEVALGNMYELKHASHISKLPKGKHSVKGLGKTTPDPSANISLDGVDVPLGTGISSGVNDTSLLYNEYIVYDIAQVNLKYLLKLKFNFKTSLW
Test: PARP enzymatic inhibition ELISA (PARP1)
Format: biochemical
Settings: n = 3, mean ± SD
METRIC: IC50 (nM)

1 = C[C@@H]1COCCN1c1cc(CNC(=O)CNC(=O)c2cc(Cc3n[nH]c(=O)c4ccccc34)ccc2F)nc(-c2ccnc3[nH]ccc23)n1 [Compound B2]
2 = C[C@@H]1COCCN1c1cc(CNC(=O)c2cnc(N3CCN(C(=O)c4cc(Cc5n[nH]c(=O)c6ccccc56)ccc4F)CC3)nc2)nc(-c2ccnc3[nH]ccc23)n1 [Compound B14]
3 = C[C@@H]1COCCN1c1cc(CNC(=O)CCCNC(=O)c2cc(Cc3n[nH]c(=O)c4ccccc34)ccc2F)nc(-c2ccnc3[nH]ccc23)n1 [Compound B4]
4 = C[C@@H]1COCCN1c1cc(CNC(=O)N2CCN(C(=O)c3cc(Cc4n[nH]c(=O)c5ccccc45)ccc3F)CC2)nc(-c2ccnc3[nH]ccc23)n1 [Compound B7]
[ask] Arrange the items listed above so that IC50 rises from first to last. Returns: the labels arranged in the requested order.
[reply] 4, 2, 3, 1
(4: 0.76 nM, 2: 1.2 nM, 3: 6.2 nM, 1: 16 nM)
